# studySystem: T1, human MAdCAM expressed on cells (human, UniProt Q13477 19-382)
# T1 construct: whole, on cells; also called MADCAM1
# T1 sequence (looked up): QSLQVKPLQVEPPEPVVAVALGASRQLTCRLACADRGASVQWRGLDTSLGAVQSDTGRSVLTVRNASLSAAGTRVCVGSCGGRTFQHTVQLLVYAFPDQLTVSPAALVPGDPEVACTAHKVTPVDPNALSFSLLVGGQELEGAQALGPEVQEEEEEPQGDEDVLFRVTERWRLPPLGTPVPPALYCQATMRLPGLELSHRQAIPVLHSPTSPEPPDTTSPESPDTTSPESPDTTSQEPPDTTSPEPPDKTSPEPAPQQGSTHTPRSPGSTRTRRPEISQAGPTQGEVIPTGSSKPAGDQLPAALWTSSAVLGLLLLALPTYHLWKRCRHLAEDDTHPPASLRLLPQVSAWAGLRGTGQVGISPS
# experimentSummary: cell binding
reportedProperty: binding result

// binding result lookup, key: MAdCAM Antibody Table 1 Clone 46 (scFv) scFv: EVQLLESGGGLVQPGGSLRLSCAASGFSVSSNYMSWVRQAPGKGLEWVAGISYDGSSKPYADSVKGRFTISRDNSKNTLYLQMNSLRAEDTAVYYCARSRGIAARPLQHWGQGTLVTVSSGGGGSGGGGSGGGGSGGGGSDIVMTQSPDSLAVSLGERATINCKSSQSVLYSSNNKNYLAWYQQKPGQPPKLLIYQASTRQSGVPDRFSGSGSGTDFTLTISSLQAEDVAVYYCHQYYGHPPTFGGGTKVEIK
binds

And for MAdCAM Antibody Table 1 Clone 15 (scFv) scFv: QVQLVQSGAEVKKPGSSVKVSCKASGYTFTNYYMHWVRQAPGQGLEWMGGIIPIVDRVKYAQKFQGRVTITADESTSTAYMELSSLRSEDTAVYYCAKGRYTVNYYYGMDVWGQGTTVTVSSGGGGSGGGGSGGGGSGGGGSDIQMTQSPSSLSASVGDRVTITCQANQDISNYLNWYQQKPGKAPKLLIYRASKLEAGVPSRFSGSGSGTDFTLTISSLQPEDFATYYCQQSSEIPYSFGQGTKLEIK ?
binds
